From: patent US20220372112A1

- assay.target: T1, human Claudin 18.2 (human, UniProt P56856-2 1-261)
- T1 construct: whole, on cells
- T1 sequence (looked up): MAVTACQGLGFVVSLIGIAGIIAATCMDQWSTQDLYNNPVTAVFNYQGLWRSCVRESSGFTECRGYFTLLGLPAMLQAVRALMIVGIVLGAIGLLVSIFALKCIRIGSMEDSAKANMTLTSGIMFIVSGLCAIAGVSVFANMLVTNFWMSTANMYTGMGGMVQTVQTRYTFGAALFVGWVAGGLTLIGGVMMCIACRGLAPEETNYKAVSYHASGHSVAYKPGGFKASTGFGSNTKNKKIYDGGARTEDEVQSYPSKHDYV
- assay.details: flow cytometry (iQue) on HEK293-Claudin 18.2 cells, chimeric IgG1
metric.name: EC50

- binder: "18D10 (antibody, V domains shown, also called Clone 18D10; 18D10 Chimera) VH: DVQLQESGPGLVKPSQSLSLTCTVTGYSITSNYAWNWIRQFPGNKLEWMGYINYSGNTNYNPSLKSRISITRDTSKNQFFLQLNSVTAEDTATYYCATSYYGNSFIYWGQGTLVTVSA VL: DIVMTQSPSSLTVTAGEKVTMSCKSSQSLLNSGNQKNYLTWYQQKPGQPPKLLIYWASTRESGVPDRFTGSGSGTDFTLTISSVQAEDLAVYYCQNAYSFPWTFGGGTKLEIK"
  metric.name: "EC50"
  experimental.result: "0.37 nM"

Okay, now this binder:
Input: // lookup EC50 for 15D11 (antibody, V domains shown, also called Clone 15D11) VH: QVQLQQSGPGLVAPSQSLSITCTVSGFSLTNYGVSWIRQPPGKGLEWLGAIWAGGNTNYNSALMSRLSIRKDNSKSQVFLKMNSLQTDDTAMYYCARVGYGNSFANWGQGTLVTVSA VL: DIVMTQSPSSLTVTAGEKVTMSCKSSQSLLNSGNLRNYLTWYQQKPGRPPKLLIYWASTRESGVPDRFTGSGSGTDFTLTISSVQAEDLAVYYCQNNYFYPLTFGAGTKLELK
Output: 0.21 nM
